# experimental-system: XIAP BIR3 (Homo sapiens, UniProt P98170)
# Construct: covering amino acids 241 to 356; XIAP BIR3
# Sequence (P98170 241-356): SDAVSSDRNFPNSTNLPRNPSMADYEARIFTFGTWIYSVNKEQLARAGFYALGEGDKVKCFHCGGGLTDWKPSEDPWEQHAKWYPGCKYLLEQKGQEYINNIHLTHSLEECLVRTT
# test-protocol: XIAP BIR3 binding assay (DELFIA), displacement of SMAC peptide
# condition: GST-fusion BIR3 domain (aa 241 to 356) 10 nM, SMAC peptide 10 nM; activity of the (S)-isomers
measured-metric: pIC50
One number for each entry, as −log10 of the molar value.

compound	pIC50
CC(N)C(=O)Nc1cc2ccccc2c(C#Cc2cscn2)n1 (centres unmarked)	5.92
CNC(C)C(=O)Nc1ccc(-c2ccc(OC)nc2OC)c(C#Cc2ccccc2)n1 (centres unmarked)	6.00
CC(N)C(=O)Nc1cc2ccccc2c(C#Cc2cccs2)n1 (centres unmarked)	6.33
CNC(C)C(=O)Nc1ccc(-c2sc(-c3ccccc3)nc2C)c(C#Cc2ccccc2)n1 (centres unmarked)	5.98

Query: XIAP BIR3 (Homo sapiens, UniProt P98170) / pIC50 / CNC(C)C(=O)Nc1ccc(-c2cnccc2C#N)c(C#Cc2ccc(C)cc2)n1 (centres unmarked) : value?
Response: 6.38
